Data origin, for the record: patent US12180146B2

Would you kindly list SHR heart rate, time after administration 1 h for each of these compounds?
Test system: spontaneously hypertensive rats (SHR)
Assay: Antihypertensive activity test: blood pressure and heart rate of spontaneously hypertensive rats (SHR)
Type: in vivo, rat
Settings: 200 mg/kg, 1 h, N = 8
Counter-ions that a name gives are not always drawn.
State just the number; it will be interpreted in beat/min.

Indicate the recorded SHR heart rate, time after administration 1 h value for this compound: CCC(O)c1cccc(CO)c1 (centres unmarked) [Compound 13]
325

Indicate the recorded SHR heart rate, time after administration 1 h value for this compound: Cc1ccc(C(O)CO)cc1 (centres unmarked) [Compound 12]
328

Indicate the recorded SHR heart rate, time after administration 1 h value for this compound: CCc1ccc(C(O)CO)cc1 (centres unmarked) [Compound 4]
347

Indicate the recorded SHR heart rate, time after administration 1 h value for this compound: COCCc1ccc(OCC(O)CNC(C)C)cc1 (centres unmarked) [Metoprolol Hydrochloride, reference compound]
283

Indicate the recorded SHR heart rate, time after administration 1 h value for this compound: CCc1cccc(C(O)CO)c1 (centres unmarked) [Compound 1, 1-(3-ethylphenyl)-1,2-ethylene glycol]
348

* * *

Test system: spontaneously hypertensive rats (SHR)
Experiment: Antihypertensive activity test: blood pressure and heart rate of spontaneously hypertensive rats (SHR)
Assay type: in vivo, rat
Conditions: 200 mg/kg, 5 h
Would you kindly list SBP Difference before and after administration, 5 h for each of these molecules?
State just the number; it will be interpreted in mmHg.

Indicate the recorded SBP Difference before and after administration, 5 h value for this molecule: CCc1cccc(C(O)CO)c1 (centres unmarked) [Compound 1, 1-(3-ethylphenyl)-1,2-ethylene glycol]
17

Indicate the recorded SBP Difference before and after administration, 5 h value for this molecule: CCOC(=O)OC(CO)c1cccc(CC)c1 (centres unmarked) [Compound 19]
10

Indicate the recorded SBP Difference before and after administration, 5 h value for this molecule: [2H]OCC(O[2H])c1cccc(CC)c1 (centres unmarked) [Compound 1-3]
22

Indicate the recorded SBP Difference before and after administration, 5 h value for this molecule: COc1cc(C(O)CO)ccc1O (centres unmarked) [Compound 25]
12

Indicate the recorded SBP Difference before and after administration, 5 h value for this molecule: CCc1cccc(C(CO)OC2OC(CO)C(O)C(O)C2O)c1 (centres unmarked) [Compound 16]
11

* * *

Would you kindly list RVHI for each of these compounds?
System: monocrotaline-induced pulmonary hypertension model rats (MCT-PAH)
Assay: Monocrotaline-induced pulmonary hypertension model rats, oral (gavage) treatment for 21 days
Format: in vivo, SD rats
Settings: 100 mg/kg
Please give the numeric answer without any surrounding text.

Give measured RVHI for COc1cccc(C(O)CO)c1 (stereo not drawn) [Compound 8] (monocrotaline-induced pulmonary hypertension model rats (MCT-PAH)).
0.33

Give measured RVHI for OCC(O)c1cccc(F)c1 (stereo not drawn) [Compound 7] (monocrotaline-induced pulmonary hypertension model rats (MCT-PAH)).
0.33

Give measured RVHI for CCc1ccccc1C(O)CO (stereo not drawn) [Compound 5] (monocrotaline-induced pulmonary hypertension model rats (MCT-PAH)).
0.35

Give measured RVHI for CCc1cccc(C(O)CO)c1 (stereo not drawn) [Compound 1, 1-(3-ethylphenyl)-1,2-ethylene glycol] (monocrotaline-induced pulmonary hypertension model rats (MCT-PAH)).
0.31

Give measured RVHI for CCc1cccc(C(COC(C)=O)OC(C)=O)c1 (stereo not drawn) [Compound 30] (monocrotaline-induced pulmonary hypertension model rats (MCT-PAH)).
0.245

Give measured RVHI for CCc1cccc(C(CO)OC2OC(CO)C(O)C(O)C2O)c1 (stereo not drawn) [Compound 16] (monocrotaline-induced pulmonary hypertension model rats (MCT-PAH)).
0.320

* * *

Tested on: spontaneously hypertensive rats (SHR)
Experiment: Antihypertensive activity test: blood pressure and heart rate of spontaneously hypertensive rats (SHR)
Assay type: in vivo, rat
Details: 200 mg/kg, 5 h
PARAMETER_MEASURED: SBP Difference before and after administration, 5 h (mmHg)
State just the number; it will be interpreted in mmHg.

Indicate the recorded SBP Difference before and after administration, 5 h value for this compound: CCC(O)c1cccc(CO)c1 (stereo not drawn) [Compound 13]
10

Indicate the recorded SBP Difference before and after administration, 5 h value for this compound: CC(C)(O)[C@H](O)[C@H](O)c1cccc2[nH]ccc12 [Compound 21]
13

Indicate the recorded SBP Difference before and after administration, 5 h value for this compound: COc1cccc(C(O)CO)c1 (stereo not drawn) [Compound 8]
14

Indicate the recorded SBP Difference before and after administration, 5 h value for this compound: COP(=O)(OC)OCC(O)c1ccccc1 (stereo not drawn) [Compound 20]
7

Indicate the recorded SBP Difference before and after administration, 5 h value for this compound: CCc1cccc(C(O)COC(=O)[C@@H](C)N)c1 (stereo partly drawn) [Compound 22]
24

Indicate the recorded SBP Difference before and after administration, 5 h value for this compound: CCc1cccc([C@@H](O)CO)c1 [Compound 1-1]
20

Indicate the recorded SBP Difference before and after administration, 5 h value for this compound: OCC(O)c1cccc(F)c1 (stereo not drawn) [Compound 7]
18

Indicate the recorded SBP Difference before and after administration, 5 h value for this compound: OCC(O)c1ccccc1 (stereo not drawn) [Compound 2]
20

Indicate the recorded SBP Difference before and after administration, 5 h value for this compound: OCC(O)c1cccc(Br)c1 (stereo not drawn) [Compound 6]
7

Indicate the recorded SBP Difference before and after administration, 5 h value for this compound: CCc1cccc([C@H](O)CO)c1 [Compound 1-2]
12

Indicate the recorded SBP Difference before and after administration, 5 h value for this compound: COc1ccc(C(O)C(=O)O)cc1 (stereo not drawn) [Compound 17]
15

Indicate the recorded SBP Difference before and after administration, 5 h value for this compound: CC(C)c1cccc(C(O)CO)c1 (stereo not drawn) [Compound 9]
10
